test: Selectivity index, ratio of IC50 for african green monkey Vero cells to IC50 for chloroquine-resistant Plasmodium falciparum W2; assay type: toxicity, cell-based; details: Vero cells versus Plasmodium falciparum W2, read-out: Ratio IC50
measurement.kind: selectivity ratio

compound="COc1cc(NC(C)CCCNC(=O)[C@H](CCCNC(=N)N)NC(=O)[C@@H](N)CCCNC(=N)N)c2ncccc2c1 (stereo not given in full)" measurement_kind="selectivity ratio" result="> 5"
compound="COc1cc(NC(C)CCCNC(=O)C[C@@H](NC(=O)[C@H](N)CCCNC(=N)N)C(=O)O)c2nc(C(C)(C)C)ccc2c1 (stereo not given in full)" measurement_kind="selectivity ratio" result="> 9.1"
compound="COc1cc(NC(C)CCCNC(=O)C[C@H](NC(=O)[C@@H](N)CCCNC(=N)N)C(=O)O)c2ncccc2c1 (stereo not given in full)" measurement_kind="selectivity ratio" result="> 8.2"
compound="COc1cc(NC(C)CCCNC(=O)[C@@H](CCCNC(=N)N)NC(=O)[C@H](N)CCCNC(=N)N)c2ncccc2c1 (stereo not given in full)" measurement_kind="selectivity ratio" result="> 14"
compound="COc1cc(NC(C)CCCNC(=O)[C@@H](CCCN)NC(=O)[C@H](N)CCCN)c2ncccc2c1 (stereo not given in full)" measurement_kind="selectivity ratio" result="> 5"
